target: NRAS G12C (Homo sapiens (Human), UniProt P01111+P62937, G12C); experiment: Ras-Raf (BRAF RBD) disruption / FRET / MOA assay, NRAS G12C; type: biochemical; details: read-out: IC50* NRAS G12C FRET data
Sequence (P01111 whole entry G12C, one chain of several): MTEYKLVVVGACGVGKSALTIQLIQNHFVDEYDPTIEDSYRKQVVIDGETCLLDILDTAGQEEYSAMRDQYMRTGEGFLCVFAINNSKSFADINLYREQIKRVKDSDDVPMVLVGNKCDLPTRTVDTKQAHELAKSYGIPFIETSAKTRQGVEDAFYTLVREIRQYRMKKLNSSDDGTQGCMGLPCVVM
property: IC50

Exam item: Name the recorded IC50 for CCn1c(-c2cccnc2[C@H](C)OC)c2c3cc(ccc31)-c1csc(n1)C[C@H](NC(=O)[C@H](C(C)C)N(C)C(=O)N1CCC3(CC1)CN(C(=O)/C=C/CN(C)C)C3)C(=O)N1CCC[C@H](N1)C(=O)OCC(C)(C)C2 (atropisomer, axis not shown) .
Marked response: 10 to 100 nM

Exam item: Name the recorded IC50 for `CCn1c(-c2cnccc2[C@H](C)OC)c2c3cc(ccc31)-c1cc(O)cc(c1)C[C@H](NC(=O)[C@H](C(C)C)N(C)C(=O)[C@H]1CCN(C(=O)C#CCN(C)C)C1)C(=O)N1CCC[C@H](N1)C(=O)OCC(C)(C)C2` .
Marked response: < 10 nM

Exam item: Name the recorded IC50 for C=CC(=O)N1CC(F)(C(=O)N(C)[C@H](C(=O)N[C@H]2Cc3cccc(c3)-c3ccc4c(c3)c(c(-c3cccnc3[C@H](C)OC)n4CC)CC(C)(C)COC(=O)[C@@H]3CCCN(N3)C2=O)C(C)C)C1 (atropisomer, axis not shown) .
Marked response: 10 to 100 nM

Exam item: Name the recorded IC50 for CCn1c(-c2cccnc2[C@H](C)OC)c2c3cc(ccc31)C1=CCCN(C1)C[C@H](NC(=O)[C@@H](COC1CN(C(=O)C#CC(C)(C)N(C)C)C1)C(C)C)C(=O)N1CCC[C@H](N1)C(=O)OCC(C)(C)C2 (atropisomer, axis not shown) .
Marked response: < 10 nM

###

Target: K-Ras G13C (Homo sapiens (Human), UniProt P01116+P62937, G13C)
Sequence (P01116-2 other isoform, or with tags, fused parts or gaps G13C): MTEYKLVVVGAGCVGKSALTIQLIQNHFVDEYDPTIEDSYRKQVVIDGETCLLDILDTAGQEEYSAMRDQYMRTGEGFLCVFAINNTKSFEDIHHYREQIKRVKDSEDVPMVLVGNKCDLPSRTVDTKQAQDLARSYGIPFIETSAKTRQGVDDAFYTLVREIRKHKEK
Sequence (P62937 whole entry): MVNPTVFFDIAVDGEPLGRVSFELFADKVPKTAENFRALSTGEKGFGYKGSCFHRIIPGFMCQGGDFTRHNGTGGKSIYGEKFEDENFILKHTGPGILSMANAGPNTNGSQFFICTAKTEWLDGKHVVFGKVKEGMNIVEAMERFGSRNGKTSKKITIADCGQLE
Test: Ras-Raf (BRAF RBD) disruption / FRET / MOA assay, KRAS G13C
Type: biochemical
Details: KRAS G13C; Ras-Raf disruption/FRET/MOA assay; read-out: IC50* KRAS G13C FRET data
Protocol: The purpose of this biochemical assay is to measure the ability of test compounds to facilitate ternary complex formation between a nucleotide-loaded Ras isoform and cyclophilin A; the resulting ternary complex disrupts binding to a BRAF^RBD construct, inhibiting Ras signaling through a RAF effector. Compound is present in plate wells as a 10-point 3-fold dilution series starting at a final concentration of 30 μM. […]
Exercise: state measured IC50 for each of the compounds provided.

Exam item: Name the recorded IC50 for C=CC(=O)N1CCN(C(=O)N(C)[C@H](C(=O)N[C@H]2Cc3nc(cs3)-c3ccc4c(c3)c(c(-c3cccnc3[C@H](C)OC)n4CC)CC(C)(C)COC(=O)[C@@H]3CCCN(N3)C2=O)C(C)C)C[C@H]1C (atropisomer, axis not shown) [Example A432] .
Marked response: 10 to 100 nM

Exam item: Name the recorded IC50 for CCn1c(-c2cccnc2)c2c3cc(ccc31)-c1csc(c1)C[C@H](NC(=O)[C@H](C(C)C)N(C)C(=O)[C@H]1CCN(C(=O)C#CCN3CCOCC3)C1)C(=O)N1CCC[C@H](N1)C(=O)OCC(C)(C)C2 [Example A205] .
Marked response: > 10000 nM

Exam item: Name the recorded IC50 for C=C(C)C(=O)N1CC2(CCN(C(=O)N(C)[C@H](C(=O)N[C@H]3Cc4nc(cs4)-c4ccc5c(c4)c(c(-c4cccnc4[C@H](C)OC)n5CC)CC(C)(C)COC(=O)[C@@H]4CCCN(N4)C3=O)C(C)C)CC2)C1 (atropisomer, axis not shown) [Example A651] .
Marked response: 100 to 1000 nM

Exam item: Name the recorded IC50 for CCn1c(-c2cccnc2[C@H](C)OC)c2c3cc(ccc31)N1CCO[C@@H](C[C@H](NC(=O)[C@@H](COC3CN(C(=O)C#CC(C)(C)N(C)C)C3)C(C)C)C(=O)N3CCC[C@H](N3)C(=O)OCC(C)(C)C2)C1 (atropisomer, axis not shown) [Example A377] .
Marked response: 1000 to 10000 nM

###

biological target: KRAS Q61H (Homo sapiens (Human), UniProt P01116+P62937, Q61H); assay: Ras-Raf (BRAF RBD) disruption / FRET / MOA assay, KRAS Q61H; format: biochemical; details: Ras-Raf disruption/FRET/MOA assay; class symbols; read-out: KRAS Q61H FRET data IC50
Sequence (P01116-2 other isoform, or with tags, fused parts or gaps Q61H): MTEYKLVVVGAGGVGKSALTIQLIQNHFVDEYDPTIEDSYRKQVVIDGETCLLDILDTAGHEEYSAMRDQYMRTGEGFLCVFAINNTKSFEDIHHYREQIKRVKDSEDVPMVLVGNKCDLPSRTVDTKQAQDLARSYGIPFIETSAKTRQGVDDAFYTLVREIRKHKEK
Sequence (P62937 whole entry): as the sequence (P62937 whole entry) above
Exercise: state measured IC50 for each of the compounds provided.

Exam item: Name the recorded IC50 for C=CC(=O)N1C[C@H]2CN(C(=O)N(C)[C@H](C(=O)N[C@H]3Cc4nc(cs4)-c4ccc5c(c4)c(c(-c4cccnc4[C@H](C)OC)n5CC)CC(C)(C)COC(=O)[C@@H]4CCCN(N4)C3=O)C(C)C)[C@H]2C1 (atropisomer, axis not shown) .
Marked response: 10 to 100 nM

Exam item: Name the recorded IC50 for CCn1c(-c2cccnc2[C@H](C)OC)c2c3cc(ccc31)-c1cccc(c1)C[C@H](NC(=O)[C@H](C(C)C)N(C)C(=O)C1(F)CCN(C(=O)/C=C/CN(C)C)CC1)C(=O)N1CCC[C@H](N1)C(=O)OCC(C)(C)C2 (atropisomer, axis not shown) .
Marked response: 100 to 1000 nM

Exam item: Name the recorded IC50 for `C=CC(=O)N1CC[C@H](C(=O)N(C)[C@H](C(=O)N[C@H]2Cc3cc(O)cc(c3)-c3ccc4c(c3)c(c(-c3cn(C)cn3)n4CC)CC(C)(C)COC(=O)[C@@H]3CCCN(N3)C2=O)C(C)C)C1` .
Marked response: 1000 to 10000 nM

Exam item: Name the recorded IC50 for C=CC(=O)N1CCO[C@H]2CN(C(=O)N(C)[C@H](C(=O)N[C@H]3Cc4nc(n(C)n4)-c4ccc5c(c4)c(c(-c4cccnc4[C@H](C)OC)n5CC(F)(F)F)CC(C)(C)COC(=O)[C@@H]4CCCN(N4)C3=O)C(C)C)C[C@H]21 (atropisomer, axis not shown) .
Marked response: 100 to 1000 nM

Exam item: Name the recorded IC50 for CCn1c(-c2cccnc2[C@H](C)OC)c2c3cc(ccc31)-c1csc(n1)C[C@H](NC(=O)[C@H](C(C)C)N(C)C(=O)N1CCC3(CC1)CN(C(=O)/C=C/CN1CCOCC1)C3)C(=O)N1CCC[C@H](N1)C(=O)OCC(C)(C)C2 (atropisomer, axis not shown) .
Marked response: 10 to 100 nM

Exam item: Name the recorded IC50 for `C=CC(=O)N1CCO[C@H]2CN(C(=O)N(C)[C@H](C(=O)N[C@H]3C[C@H]4CN(CCO4)c4ccc5c(c4)c(c(-c4cccnc4[C@H](C)OC)n5CC)CC(C)(C)COC(=O)[C@@H]4CCCN(N4)C3=O)C(C)C)C[C@H]21` .
Marked response: 1000 to 10000 nM

Exam item: Name the recorded IC50 for C=CC(=O)N1C[C@H](C)N(C(=O)N(C)[C@H](C(=O)N[C@H]2Cc3nc(cs3)-c3ccc4c(c3)c(c(-c3cccnc3[C@H](C)OC)n4CC)CC(C)(C)COC(=O)[C@@H]3CCCN(N3)C2=O)C(C)C)CC12CC2 (atropisomer, axis not shown) .
Marked response: 10 to 100 nM

Exam item: Name the recorded IC50 for C=CC(=O)N1CC[C@]2(C1)OCN([C@H](C(=O)N[C@H]1Cc3cccc(n3)-c3ccc4c(c3)c(c(-c3cccnc3[C@H](C)OC)n4CC)CC(C)(C)COC(=O)[C@@H]3CCCN(N3)C1=O)C(C)C)C2=O (atropisomer, axis not shown) .
Marked response: 1000 to 10000 nM

Exam item: Name the recorded IC50 for CCn1c(-c2cccnc2[C@H](C)OC)c2c3cc(ccc31)-c1csc(n1)C[C@H](NC(=O)[C@H](C(C)C)N(C)C(=O)N(C)C1CN(C(=O)/C=C/[C@@H]3CCCN3C)C1)C(=O)N1CCC[C@H](N1)C(=O)OCC(C)(C)C2 (atropisomer, axis not shown) .
Marked response: 100 to 1000 nM

Exam item: Name the recorded IC50 for CO[C@@H](C)c1ncccc1-c1c2c3cc(ccc3n1CC(F)(F)F)-c1cccc(c1)C[C@H](NC(=O)[C@@H](COC1CN(C(=O)C#CC(C)(C)N(C)C)C1)C(C)C)C(=O)N1CCC[C@H](N1)C(=O)OCC(C)(C)C2 (atropisomer, axis not shown) .
Marked response: 1000 to 10000 nM

Exam item: Name the recorded IC50 for CO[C@@H](C)c1ncccc1-c1c2c3cc(ccc3n1CC(F)(F)F)-c1cccc(c1)C[C@H](NC(=O)[C@H](C(C)C)N1CC[C@]3(CCN(C(=O)C#CC(C)(C)N(C)C)C3)C1=O)C(=O)N1CCC[C@H](N1)C(=O)OCC(C)(C)C2 (atropisomer, axis not shown) .
Marked response: 100 to 1000 nM

Exam item: Name the recorded IC50 for CCn1c(-c2cccnc2[C@H](C)OC)c2c3cc(ccc31)-c1cc(CF)cc(c1)C[C@H](NC(=O)[C@H](C(C)C)N1CC[C@]3(CCN(C(=O)C#CC(C)(C)N(C)C)C3)C1=O)C(=O)N1CCC[C@H](N1)C(=O)OCC(C)(C)C2 (atropisomer, axis not shown) .
Marked response: 100 to 1000 nM

Exam item: Name the recorded IC50 for C=C(F)C(=O)N1CC2(CCN(C(=O)N(C)[C@H](C(=O)N[C@H]3Cc4nc(cs4)-c4ccc5c(c4)c(c(-c4cccnc4[C@H](C)OC)n5CC)CC(C)(C)COC(=O)[C@@H]4CCCN(N4)C3=O)C(C)C)CC2)C1 (atropisomer, axis not shown) .
Marked response: 10 to 100 nM

Exam item: Name the recorded IC50 for `C=CC(=O)N1CC[C@H](C(=O)N(C)[C@H](C(=O)N[C@H]2Cc3cc(O)cc(c3)-c3ccc4c(c3)c(c(-c3c(F)cccc3CCOC)n4CC)CC(C)(C)COC(=O)[C@@H]3CCCN(N3)C2=O)C(C)C)C1` .
Marked response: 1000 to 10000 nM

Exam item: Name the recorded IC50 for C=CC(=O)N(C)CC1CN(C(=O)N(C)[C@H](C(=O)N[C@H]2Cc3nc(cs3)-c3ccc4c(c3)c(c(-c3cccnc3[C@H](C)OC)n4CC)CC(C)(C)COC(=O)[C@@H]3CCCN(N3)C2=O)C(C)C)C1 (atropisomer, axis not shown) .
Marked response: 10 to 100 nM
